Tested on: Aspergillus fumigatus
protocol_details: Antifungal activity against Aspergillus fumigatus
Type: functional
Mark each entry met if its MIC sits below 4 µg/mL, and not met for all others.

Reference set (5 entries):
INSERT INTO results (compound, assigned_class) VALUES
  ('Fc1ccc(B2OCc3cc(F)ccc32)cc1', 'met'),
  ('Cc1ccc(B2OCc3cc(F)ccc32)cc1', 'met'),
  ('Clc1cccc(B2OCc3ccccc32)c1', 'not met'),
  ('Fc1ccc2c(c1)CCOB2c1ccccc1', 'not met'),
  ('Fc1ccc2c(c1)COB2/C=C/c1ccccc1', 'met');

Qu. I wonder whether CC1OB(O)c2ccc(F)cc21 (stereo not given) has MIC below 4 µg/mL. Can you tell?
Ans. not met

Qu. I wonder whether `N#Cc1ccc2c(c1)COB2O` has MIC below 4 µg/mL. Can you tell?
Ans. not met

Qu. I wonder whether `Fc1ccc2c(c1)COB2c1ccccc1` has MIC below 4 µg/mL. Can you tell?
Ans. met

Qu. I wonder whether OB1OCc2cc(F)ccc21 [TAVABOROLE] has MIC below 4 µg/mL. Can you tell?
Ans. met

Qu. I wonder whether `Fc1ccc2c(c1)COB2c1cccc(Cl)c1` has MIC below 4 µg/mL. Can you tell?
Ans. met

Qu. I wonder whether `OB1OCc2cc(F)c(F)cc21` has MIC below 4 µg/mL. Can you tell?
Ans. met

Qu. I wonder whether `OCc1ccc2c(c1)COB2O` has MIC below 4 µg/mL. Can you tell?
Ans. not met

Qu. I wonder whether `OB1OCc2ccc3ccccc3c21` has MIC below 4 µg/mL. Can you tell?
Ans. not met

Qu. I wonder whether `OB1OCc2ccc(F)cc21` has MIC below 4 µg/mL. Can you tell?
Ans. not met

Qu. I wonder whether `OB1OCCc2cc(F)ccc21` has MIC below 4 µg/mL. Can you tell?
Ans. not met

Qu. I wonder whether OB1OCc2ccccc21 [BENZOXABOROLE] has MIC below 4 µg/mL. Can you tell?
Ans. met

Qu. I wonder whether `Cc1ccc2c(c1)COB2O` has MIC below 4 µg/mL. Can you tell?
Ans. met

Qu. I wonder whether `Fc1cccc(B2OCc3ccccc32)c1` has MIC below 4 µg/mL. Can you tell?
Ans. not met
